Test Method Notes: Clearance in Sprague-Dawley rat at 30 mg/kg, po in 0.5% methocel and 3 to 5 mg/kg, iv in 60% PEG 200
Run Parameters: in vivo
Observation Type: clearance (mL/min/kg)

Solved cases below.
# Query Smiles, Observation Type, Meas Value
rows = [
    ("COCCCc1cc(CN(C(=O)[C@H]2CNCC[C@@H]2c2ccc(OCCOc3c(Cl)cc(C)cc3Cl)cc2)C2CC2)cc(OCC(C)(C)C(=O)O)c1", "clearance", 44),
    ("COCCCc1cc(CN(C(=O)[C@H]2CNCC[C@@H]2c2ccc(OCCOc3c(Cl)cc(C)cc3Cl)cc2)C2CC2)cc(OC[C@H]2C[C@@H]2C(=O)O)c1", "clearance", 60),
    ("COCCCc1cc(CN(C(=O)[C@H]2CNCC[C@@H]2c2ccc(OCCOc3c(Cl)cc(C)cc3Cl)cc2)C2CC2)cc(OCC2(Cc3nn[nH]n3)CC2)c1", "clearance", 46),
]

[a] COCCCc1cc(CN(C(=O)[C@H]2CNCC[C@@H]2c2ccc(OCCOc3c(Cl)cc(C)cc3Cl)cc2)C2CC2)cc(OCCC2(C(=O)O)CCCC2)c1
[b] COCCCc1cc(CN(C(=O)[C@H]2CNCC[C@@H]2c2ccc(OCCOc3c(Cl)cc(C)cc3Cl)cc2)C2CC2)cc(OCCC(C)(C)C(=O)O)c1
[c] COCCCc1cc(CN(C(=O)[C@H]2CNCC[C@@H]2c2ccc(OCCOc3c(Cl)cc(C)cc3Cl)cc2)C2CC2)cc(OCCCC(C)(C)C(=O)O)c1
Ascending by clearance, please. List labels; respect the requested ordering.
c, a, b
(c: 9.7 mL/min/kg, a: 27 mL/min/kg, b: 43 mL/min/kg)
